System: LOX IMVI melanoma
measurementNotes: NCI tumour cell line growth inhibition, 48 h; in the data active = GI50 below about 0.43 µM; inactive = the rest
Outcome field: choose from active, inactive

Below are worked cases with known answers.
                                   molecule       targetentity     class
0  CCN(CC)c1ccc(/C=C/C(=O)c2cccc(NS(C)(=O)=O)c2)cc1  LOX IMVI melanoma  inactive
1  CC(=O)OC1CCC2(C)C(CCC3C2CCC2(C)C(C4=CC(=O)OC4)CCC32)C1 (stereo not given)  LOX IMVI melanoma    active
2  Cc1cc(N(CCCNc2ccnc3cc(Cl)ccc23)Cc2cccs2)nc(Cl)n1  LOX IMVI melanoma  inactive

[in] Entry O=C1C2C(C(=O)[N]1[Hg][c]1ccccc1)C1(Cl)C(Cl)=C(Cl)C2(Cl)C1(Cl)Cl (stereo not given) : call = ?
[out] inactive

[in] Entry CC(=O)NNC(=O)c1nn(-c2ccc(Cl)cc2)cc1OC(C)=O : call = ?
[out] inactive

* * *

Exercise: for every item that follows, state its recorded TGI.
Test system: PC-3 prostate
measurementNotes: NCI tumour cell line growth inhibition, 48 h

In [3]: df
Out[3]:
                                   compound  measvalue
0  C[C@@H]1CN(Cc2ccc(/C=C/c3n[nH]c4ccc5nc(-c6cn[nH]c6C(F)(F)F)c6c(c5c34)CCCC6)cc2)C[C@H](C)O1    18.8 µM
1  COC(=O)[C@]12CC[C@@H](C)[C@H](C)[C@@H]1C1=CC[C@@H]3[C@@]4(C)C(c5ncon5)=C[C@@](C)(CO)C4=CC[C@@]3(C)[C@]1(C)CC2     4.7 µM
2                  [N-]=[N+]=C1CNC(=O)NC1=O   > 100 µM

Below are some compounds; for each one, tell me its TGI.
1. O=C(/C=C/c1cccs1)c1ccsc1
2. O=C1CCC2=C(CCC2)N1CCc1ccc2c(c1)OCO2
3. Clc1ccc(OCC2NC3C=CC32)cn1 (stereo unspecified)
4. Cc1cc(-c2ccccc2)c(C)n1Cc1ccc(Cl)cc1
5. O=C(NN=C1CCCCC1)Nc1ccccc1Cl
6. N#CSCC1COc2ccccc2O1 (stereo unspecified)
7. CC1=CC(=O)c2cccc(NC3=NCCO3)c21

[out]
1: 59.1 µM; 2: > 100 µM; 3: > 100 µM; 4: > 100 µM; 5: > 100 µM; 6: > 10 µM; 7: > 100 µM

[in] Tell me its TGI given CC(NC(=O)C(C)C(=O)NCc1ccc(C(F)(F)F)cc1)C(N)=O (stereo unspecified) as the entry.
[out] > 100 µM

* * *

Test system: SF-295 CNS
measurementNotes: NCI tumour cell line growth inhibition, 48 h
quantityName: GI50

>>> print(df.to_string())
                                   molecule  quantityname  measvalue
0  COC(=O)C1CC2(c3ccc(C)cc3)C(c3ccc(C)cc3)=C(c3ccc(C)cc3)C1(c1ccc(C)cc1)S2=O (stereo not given)          GI50    57.6 µM
1  COc1cc2c(cc1OCCCCCCNC(=O)c1cc3ccccc3[nH]1)N=CC1CCCN1C2=O (stereo not given)          GI50    31.1 µM
2  O=C(Cc1ccccc1)Nc1nnc(CCSCCc2nnc(NC(=O)Cc3ccccc3)s2)s1          GI50    4.38 µM
3  C/C1=C\CC[C@@](C)(O)[C@H]2C[C@H](CC/C(C)=C/CC1)C1(CC1)C(=O)O2          GI50    19.3 µM

Consider the record given below.
[in] Tell me its GI50 given Cc1cc[c-]cc1.Fc1c[c-]c(-c2ccccn2)c(F)c1.N#CCC[PH+](CCC#N)c1ccccc1.[Pt+2] as the entry.
[out] 3.91 µM
